- Assay summary: ATG_E_Box_CIS: Attagene CIS-FACTORIAL HepG2 Assay for human Enhancer Box (E-box) (AID 2282936)
- Experimental parameters: HepG2 E-box cis-reporter transcription, actives raise or lower the signal
- Method: ATG_CIS is a cell-based, multiplexed-readout assay that uses HepG2, a human liver cell line, with measurements taken at 24 hours after chemical dosing in a 24-well plate.ATG_E_Box_CIS is one of 52 assay component(s) measured or calculated from the ATG_CIS assay. […] This assay endpoint, ATG_E_Box_CIS, was analyzed with bidirectional fitting relative to DMSO as the negative control and baseline of activity. […]
The source made the active and inactive calls. How the source made its calls: active means hit-call score of the fitted dose curve at least 0.9, where 1 is the maximum; inactive means score below 0.9.
Outcome codes: 1 (yes) for active, 0 (no) for inactive

CC1=CCC(C(C)(C)O)CC1 (stereo unspecified) = 0 (no)
OCCN1CCOCC1 = 0 (no)
CC/C=C\CCOC(=O)C(C)C = 0 (no)
CN(C)C(=O)Nc1ccccc1 = 0 (no)
CC1=CC(O)CC(C)(C)C1 (stereo unspecified) = 0 (no)
c1ccc2scnc2c1 = 0 (no)
CC(=O)N(C)C = 0 (no)
CC(C)(C)c1cc(CCC(=O)OCCSCCOC(=O)CCc2cc(C(C)(C)C)c(O)c(C(C)(C)C)c2)cc(C(C)(C)C)c1O = 0 (no)
CCCO = 0 (no)
CC(O)COCC(C)O (stereo unspecified) = 0 (no)
CC(C)(O)CCc1ccccc1 = 0 (no)
CCNC(=S)NCC = 0 (no)
O=C(O)C1=NN(c2ccc(S(=O)(=O)O)cc2)C(=O)C1 = 0 (no)
CC1(C)[C@H](C=C(Cl)Cl)[C@H]1C(=O)OCc1cccc(Oc2ccccc2)c1 = 0 (no)
C=CC(C)CCCC(C)(C)O (stereo unspecified) = 0 (no)
COC(=O)C(C)Oc1ccc(Oc2ncc(C(F)(F)F)cc2Cl)cc1 (stereo unspecified) = 1 (yes)
CC1=C(C=O)C(C)(C)CCC1 = 0 (no)
CCC(C)(C)c1cc(O)c(C(C)(C)CC)cc1O = 0 (no)
CCCCCCCCCCCCOC(C)=O = 0 (no)
c1ccc2c(c1)-c1ccc3ccc4cccc5cc-2c1c3c45 = 0 (no)
CCCC(O)C(CC)CO (stereo unspecified) = 0 (no)

###

- Assay system: Estrogen receptor (Homo sapiens) (UniProt P03372)
- Sequence (P03372 whole entry, looked up): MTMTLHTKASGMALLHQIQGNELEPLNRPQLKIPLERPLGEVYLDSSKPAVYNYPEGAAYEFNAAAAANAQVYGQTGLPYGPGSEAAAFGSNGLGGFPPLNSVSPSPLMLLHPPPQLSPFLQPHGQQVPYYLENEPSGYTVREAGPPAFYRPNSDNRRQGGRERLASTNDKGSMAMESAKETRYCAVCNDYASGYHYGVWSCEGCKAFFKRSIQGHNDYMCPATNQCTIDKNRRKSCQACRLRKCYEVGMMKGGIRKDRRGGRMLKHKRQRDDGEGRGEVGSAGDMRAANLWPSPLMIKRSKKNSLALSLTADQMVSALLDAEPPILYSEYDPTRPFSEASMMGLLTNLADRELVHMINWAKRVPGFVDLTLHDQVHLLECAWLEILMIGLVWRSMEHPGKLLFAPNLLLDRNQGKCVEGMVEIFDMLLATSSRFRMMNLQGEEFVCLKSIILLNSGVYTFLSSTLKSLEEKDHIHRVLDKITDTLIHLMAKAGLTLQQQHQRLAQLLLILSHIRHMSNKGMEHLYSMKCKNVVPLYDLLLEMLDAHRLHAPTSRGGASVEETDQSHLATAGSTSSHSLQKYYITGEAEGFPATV
- Assay summary: ATG_ERa_TRANS: Attagene TRANS-FACTORIAL HepG2 Assay for human Estrogen Receptor alpha (ERa) (AID 2282970)
- Experimental parameters: HepG2 Attagene TRANS ERa GAL4 reporter, mRNA
Results filed as inconclusive are left out. Calls of active or inactive are those of the source. How the source made its calls: active means hit-call score of the fitted dose curve at least 0.9, where 1 is the maximum; inconclusive means response in the unintended direction; inactive means score below 0.9.
Outcome codes: active, inactive

CCOC(=O)CC1(C)OCC(C)O1 (stereo unspecified) = inactive
CC(C)(C)c1cccc(O)c1 = active
NC(=O)NC(N)=O = inactive
CC(C)(C)c1ccc(S)cc1 = inactive
CCCc1ccc(N)cc1 = inactive
CCCCCCCCCOS(=O)(=O)O = active
C=CCOC(=O)/C=C\C(=O)OCC=C = inactive
CCOC(=O)COC(=O)c1ccccc1C(=O)OCC = inactive
C=C1CC/C=C(\C)CC[C@@H]2[C@@H]1CC2(C)C = active
CC/C=C\C#N = inactive
O=C1CCC(=O)N1 = inactive
CCCC1CCC(=O)CC1 = inactive
CC(C)=CC(=O)O = active
O=C(O)C1=NN(c2ccc(S(=O)(=O)O)cc2)C(=O)C1 = inactive
CCCCCCC(O)CCOC(C)=O (stereo unspecified) = inactive
C=C1CC[C@H]2O[C@]2(C)CC[C@@H]2[C@@H]1CC2(C)C = inactive
CCCCC(CC)COCCO (stereo unspecified) = inactive
CCC(=O)OC/C=C(\C)CCC=C(C)C = inactive
c1ccc(Sc2ccccc2)cc1 = active
Nc1ccc(N)c([N+](=O)[O-])c1 = active
CC(C)N1C(=O)c2ccccc2C1=O = active

###

- Read-out: Interleukin-8 (IL8), CXCL8 (gene 3576)
- Assay summary: BSK_LPS_IL8: BioMAP Diversity Plus: LPS Assay for Interleukin-8 (IL8) Biomarker Activity (AID 2283078)
- Experimental parameters: primary human HUVEC with PBMC; actives raise or lower the signal
Activity calls are given as the source filed them. How the source made its calls: active means hit-call score of the fitted dose curve at least 0.9, where 1 is the maximum; inactive means score below 0.9.
Outcome codes: active, inactive

C=C(F)C(=O)OC(C(F)(F)F)C(F)(F)F = inactive
OCC(F)(OC(F)(F)C(F)(OC(F)(F)C(F)(F)C(F)(F)F)C(F)(F)F)C(F)(F)F (stereo unspecified) = inactive
c1ccc(Sc2ccccc2)cc1 = active
CCCCCCCCCCCCS = inactive
CC(=O)OC(C)(C)C1CC=C(C)CC1 (stereo unspecified) = inactive
O=S1(=O)CC(Cl)(Cl)C(Cl)(Cl)C1 = active
COc1ccccc1NC(=O)CC(C)=O = inactive
COC(=O)c1ccc(C(=O)OC)cc1 = inactive
NC(=O)c1c(Cl)cccc1Cl = inactive
CCCCCCCCCC(=O)OCC = inactive
OCCN1CCOCC1 = inactive

###

- Assay system: Nuclear receptor subfamily 4 group A member 2 (Homo sapiens) (UniProt P43354)
- Sequence (P43354 whole entry, looked up): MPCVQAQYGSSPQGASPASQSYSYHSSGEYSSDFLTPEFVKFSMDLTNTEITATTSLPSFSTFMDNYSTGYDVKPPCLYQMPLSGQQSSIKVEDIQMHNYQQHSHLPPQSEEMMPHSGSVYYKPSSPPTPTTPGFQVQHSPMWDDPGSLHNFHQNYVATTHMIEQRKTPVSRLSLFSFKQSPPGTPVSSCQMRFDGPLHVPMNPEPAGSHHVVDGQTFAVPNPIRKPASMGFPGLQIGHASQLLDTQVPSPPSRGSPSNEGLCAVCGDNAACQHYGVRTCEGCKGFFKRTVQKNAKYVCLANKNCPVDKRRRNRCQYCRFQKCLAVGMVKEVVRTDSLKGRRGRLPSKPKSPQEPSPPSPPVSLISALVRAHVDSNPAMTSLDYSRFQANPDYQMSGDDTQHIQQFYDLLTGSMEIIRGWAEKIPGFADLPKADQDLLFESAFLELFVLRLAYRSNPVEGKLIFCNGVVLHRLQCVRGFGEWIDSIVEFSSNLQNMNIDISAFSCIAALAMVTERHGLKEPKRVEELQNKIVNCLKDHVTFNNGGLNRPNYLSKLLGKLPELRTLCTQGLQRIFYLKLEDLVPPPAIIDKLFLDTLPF
- Assay summary: ATG_NURR1_TRANS: Attagene TRANS-FACTORIAL HepG2 Assay for human Nuclear Receptor Related Protein 1 (NURR1) (AID 2282985)
- Experimental parameters: HepG2 Attagene TRANS reporter, mRNA readout
Records with an inconclusive call do not appear. Calls of active or inactive are those of the source. Rule for the calls: active = hit-call score of the fitted dose curve at least 0.9, where 1 is the maximum; inconclusive = response in the unintended direction; inactive = score below 0.9.
Outcome codes: active, inactive

CC1=CC(C)C(C=O)C(C)C1 (stereo not given) (tested in a mixture with another compound) = inactive
CC(O)CN (stereo not given) = inactive
Cc1cccc(O)c1 = inactive
CC1=CCC(=C(C)C)CC1 = inactive
CCOC(=O)CCCCCCCCC(=O)OCC = inactive
NC(=O)c1cccnc1 = inactive
C/C=C(\C)C(=O)OC/C=C(\C)CCC=C(C)C = active
OCCCO = inactive
N=C1N=C(N)c2ccccc21 = inactive
C=C(C)CCCC(C)CCO (stereo not given) = inactive
O=c1cc[nH]cc1 = inactive
Nc1cc([N+](=O)[O-])ccc1C(=O)O = inactive
O=C(O)C1=NN(c2ccc(S(=O)(=O)O)cc2)C(=O)C1 = inactive
CCCO[Si](OCCC)(OCCC)OCCC = inactive
O=c1cc(-c2ccc(O)cc2)oc2cc(O)cc(O)c12 = inactive
Cc1cc(N)n(-c2ccccc2)n1 = inactive
CC=CC(=O)C1=C(C)C=CCC1(C)C = inactive
CCCC1CCC(=O)CC1 = inactive
CCCCCCCOC(C)=O = inactive
COC(=O)c1ccc(C(=O)OC)cc1 = inactive
[Na+] = inactive
Brc1cc(Br)cc(Br)c1 = inactive
CC(=O)OCC=C(C)CCC=C(C)CCC=C(C)C = inactive
CC(=O)CCC=C(C)CCC=C(C)C = inactive
COC(=O)C(C)Oc1ccc(Oc2ncc(C(F)(F)F)cc2Cl)cc1 (stereo not given) = inactive

###

- Assay system: Nuclear receptor subfamily 1 group I member 2 (Homo sapiens) (UniProt O75469)
- Sequence (O75469 whole entry, looked up): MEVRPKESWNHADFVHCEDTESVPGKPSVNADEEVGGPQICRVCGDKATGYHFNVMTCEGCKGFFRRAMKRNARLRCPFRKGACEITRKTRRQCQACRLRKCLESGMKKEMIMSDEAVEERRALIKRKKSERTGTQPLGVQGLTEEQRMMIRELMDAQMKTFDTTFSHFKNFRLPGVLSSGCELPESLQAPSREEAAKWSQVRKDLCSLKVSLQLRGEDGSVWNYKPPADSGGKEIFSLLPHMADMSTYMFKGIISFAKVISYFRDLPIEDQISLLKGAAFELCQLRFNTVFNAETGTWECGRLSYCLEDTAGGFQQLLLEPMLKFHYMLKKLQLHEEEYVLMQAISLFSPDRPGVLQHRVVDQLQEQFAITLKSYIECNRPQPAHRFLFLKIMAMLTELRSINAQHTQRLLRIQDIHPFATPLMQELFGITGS
- Assay summary: ATG_PXR_TRANS: Attagene TRANS-FACTORIAL HepG2 Assay for human Pregnane X Receptor (PXR) (AID 2283008)
Results filed as inconclusive are left out. Active and inactive are the calls of the source. How the source made its calls: active means hit-call score of the fitted dose curve at least 0.9, where 1 is the maximum; inconclusive means response in the unintended direction; inactive means score below 0.9.
Outcome codes: active, inactive

Cc1cc(O)c(C)c(C)c1O = active
C=C(C)C(=O)OCCC(C)OC(=O)C(=C)C (stereo not drawn) = inactive
CC(C)C(=O)c1ccccc1 = inactive
O=C(O)c1ccco1 = inactive
CC(=O)C1=C(C)[C@@H]2C[C@@]3(C1)[C@H](C)CC[C@H]3C2(C)C = active
Cc1cc(N)n(-c2ccccc2)n1 = inactive
CCCCCCCCSCc1cc(C)c(O)c(CSCCCCCCCC)c1 = inactive
COc1cc(OC)c2ccc(=O)oc2c1 = inactive
CCCCCc1cccc(=O)o1 = inactive
CCCCCC1CCC(=O)O1 (stereo not drawn) = inactive
CC/C=C\CCCCO = inactive
CC1(C)CC(=O)CC(C)(C)N1 = inactive
CN(C)c1ccc(C=O)cc1 = inactive
N#CCCNCCC#N = inactive
CCO[Si](CC)(OCC)OCC = active
CC(=O)OC(C)(C)C = inactive
O=S1(=O)CC(Cl)(Cl)C(Cl)(Cl)C1 = inactive
CCC(=O)OCC=Cc1ccccc1 = active
O=C(O)c1cccc(Cl)n1 = inactive
Cc1ccc(C(C)(C)O)cc1 = inactive
CC(O)CN (stereo not drawn) = inactive
O=Cc1ccccc1O = inactive
CCCO[Si](OCCC)(OCCC)OCCC = inactive
O=C(O)c1cc2ccccc2cc1O = inactive
CCCCCCCCCO = inactive
OCC=Cc1ccccc1 = inactive
CN(C)CCC=C1c2ccccc2CCc2ccccc21 = active
CCCCOC(=O)C(C)OC(=O)CCC (stereo not drawn) = inactive
CC/C=C\CCOC(C)OCC (stereo not drawn) = inactive
C=C1CC/C=C(\C)CC[C@@H]2[C@@H]1CC2(C)C = active
CCCCCCCCCCCCOC(C)=O = inactive
CCCCCCCCCCOC(=O)c1ccccc1C(=O)OCCCCCCCC = inactive
CC(C)N1C(=O)c2ccccc2C1=O = inactive
CCC(CC)CO = inactive
COc1ccccc1NC(=O)CC(C)=O = active
[O-]/[N+](=N\O)c1ccccc1 = inactive
CC(C)(C)c1ccc(S)cc1 = inactive
NCCN1CCNCC1 = inactive
O=C(O)c1ccccc1O = inactive
Nc1ccc(N)c([N+](=O)[O-])c1 = inactive
CC(C)=CC(=O)O = inactive
COc1ccc2[nH]cc(CCNC(C)=O)c2c1 = inactive
CCCCCCCCCOS(=O)(=O)O = inactive
